# z-score per record follows
# measurement-description: plasmodial surface anion channel blockers, osmotic lysis – cell-based, P. falciparum Indochina, OD700, 18 h, primary screen (AID 1157)
# condition-details: P. falciparum Indochina infected erythrocytes, osmotic lysis OD700, 18 h; higher = more signal, called active from +8 up or from −8 down
Note: the reply should be a number with no unit written.

The examples below pair each entry with its known result.
[
  {
    "molecule": "CC1CC/C=C\\[C@H]2OC34C=CCN(c5ccc(Cl)cc5)C(=O)[C@H]3N(C(CO)C(C)C)C(=O)[C@]4(C)C2C(=O)O1 (some centres undefined)",
    "reported-metric": "z-score",
    "assay-value": 0.647
  },
  {
    "molecule": "COc1cccc(C[C@H]2C[C@@H](CO[Si](C(C)C)(C(C)C)C(C)C)N3C(=O)[C@]4(C(C)=O)O[C@]23[C@H]2C(=O)N(C)C(=O)[C@H]24)c1",
    "reported-metric": "z-score",
    "assay-value": 0.702
  },
  {
    "molecule": "Cc1ccc(S[C@]2(C(=O)NCCN3CCOCC3)CC(=O)N(C3Cc4ccccc4C3)[C@@H]2c2ccc(CO)cc2)cc1",
    "reported-metric": "z-score",
    "assay-value": 0.375
  }
]

Kindly consider the entry below.
Query: Give me measured z-score, please, for this molecule: N#Cc1ccc(NN2C(C(O)c3ccco3)C=CC3C(=O)N(c4ccccc4)C(=O)C32)cc1 (centres undefined)
Response: 0.826
